METHOD_DESCRIPTION: Intravenous blood brain barrier (BBB) penetration assay in mice
Format: in vivo, CD-1 mice
CONDITION_LABEL: CD-1, mouse, plasma, intravenous, 1 mg/kg tail-vein, 180 min, n=3
Procedure: Intravenous blood brain barrier (BBB) penetration of Compounds 38 and 3b in mice was assessed by an outside analytical laboratory using the standard protocol. […] The concentration of 38 and 3b in brain (ng/g tissue), plasma and the ratio of the brain concentration at each time point were determined by acetonitrile precipitation of the test compounds from the samples followed by HPLC-MS?MS analysis. […] After processing, all samples were analyzed using HPLC-MS/MS analysis. […]
PROPERTY: concentration at 180 min (ng/mL)
Report only the number, with the unit ng/mL understood.

Lookup: Given CN(C)c1cc2[nH]c(=O)oc2c2c1C[C@H]1C[C@H]3[C@H](N(C)C)C(O)=C(C(N)=O)C(=O)[C@@]3(O)C(O)=C1C2=O , respond with its concentration at 180 min.
Found: 4

----------
METHOD_DESCRIPTION: Intravenous blood brain barrier (BBB) penetration assay in mice
Assay type: in vivo, CD-1 mice
CONDITION_LABEL: CD-1, mouse, plasma, intravenous, 1 mg/kg tail-vein, 60 min, n=3, read-out: Plasma concentration
PROPERTY: concentration at 60 min
Number plus unit, in that order.

Lookup: // Input: CN(C)c1cc2[nH]c(=O)oc2c2c1C[C@H]1C[C@H]3[C@H](N(C)C)C(O)=C(C(N)=O)C(=O)[C@@]3(O)C(O)=C1C2=O . Output its concentration at 60 min only.
Found: 27 ng/mL

----------
METHOD_DESCRIPTION: Intravenous blood brain barrier (BBB) penetration assay in mice
Assay type: in vivo, CD-1 mice
CONDITION_LABEL: CD-1, mouse, brain, intravenous, 1 mg/kg tail-vein, 60 min, n=3, read-out: concentration in the brain
PROPERTY: concentration at 60 min (ng/g)
Please give a number only; it is taken to be in ng/g.

Lookup: Entry CN(C)c1cc2[nH]c(=O)oc2c2c1C[C@H]1C[C@H]3[C@H](N(C)C)C(O)=C(C(N)=O)C(=O)[C@@]3(O)C(O)=C1C2=O needs its concentration at 60 min filled in; supply it.
Found: 5.8

----------
METHOD_DESCRIPTION: Intravenous blood brain barrier (BBB) penetration assay in mice
Format: in vivo, CD-1 mice
CONDITION_LABEL: CD-1, mouse, brain/plasma, intravenous, 1 mg/kg tail-vein, 30 min, read-out: Calculated ratio of brain to plasma concentration
PROPERTY: Kp at 0.5 h

Lookup: Write down Kp at 0.5 h measured for item CN(C)c1cc2[nH]c(=O)oc2c2c1C[C@H]1C[C@H]3[C@H](N(C)C)C(O)=C(C(N)=O)C(=O)[C@@]3(O)C(O)=C1C2=O
Found: 0.07
